- Test system: 885724-159-R-J1-PDC complex spheroid viability;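 note: spheroids exposed to agents for seven days before readout; percent of vehicle control viability where 100% = DMSO wells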
- assay_protocol: Anticancer human tumor 885724-159-R-J1-PDC patient-derived pancreatic adenocarcinoma cell line growth inhibition [GQUAD]
- details: second compound 0.1 µM; first compound 0.316 µM; active compounds read low
Provide the reported viability, T/C of each item.
State the answer as a number, implicitly in %.

get_value(item= CC(C)(O)C1CCC(Nc2ccc3ncc(-c4cccc(C(F)(F)F)c4)n3n2)CC1 (stereo not given) + CN(C)c1ccc(Nc2c3ccc(NC(=O)CCN4CCCC4)cc3nc3cc(NC(=O)CCN4CCCC4)ccc23)cc1 , readout=viability, T/C) returns 80.3

Entry CC1COCCN1c1cc(C2(O)CC3CCC(C2)O3)c2cnn(-c3ccn[nH]3)c2n1 (stereo not given) + CN(C)c1ccc(Nc2c3ccc(NC(=O)CCN4CCCC4)cc3nc3cc(NC(=O)CCN4CCCC4)ccc23)cc1 — recorded viability, T/C = 61.5

# viability, T/C (compound: Cc1cccc(N(C)C(=O)C2C(O)CCN2c2nc(C)cc(C(F)(F)F)c2C#N)c1 (stereo not given) + CN(C)c1ccc(Nc2c3ccc(NC(=O)CCN4CCCC4)cc3nc3cc(NC(=O)CCN4CCCC4)ccc23)cc1 ) is 104

Record COc1ccc([C@@H](O)c2cc(-c3ncnc4cc(N5CCOCC5)ccc34)c(F)cc2Cl)nn1 + Cc1cnc(CNC(=O)c2c(=O)c3ccc(N4CCCN(C)CC4)nc3n3c2sc2ccccc23)cn1 , field viability, T/C: 88.1

// viability, T/C value for COc1ncnc(C2CC2)c1-c1ncc2cnn(Cc3ccc(-c4nc(C(F)(F)F)cn4C(C)C)cc3)c2n1 + Cc1cnc(CNC(=O)c2c(=O)c3ccc(N4CCCN(C)CC4)nc3n3c2sc2ccccc23)cn1 : 111
